Measured values drawn from patent US20220112288A1 for this set.

Target: T1, human CD4 on cells (SKW3 cells; human PBMCs) (human, UniProt P01730 26-458)
T1 construct: whole, on cells; SKW3 CD4 knockout cells served as the negative cell line; also called hCD4
Experiment: FACS confirmation, supernatant on human PBMCs, anti-mouse Fc 647, CD4+ gate
# binarize PBMCs, anti-mFc 647 CD4+ gate - RL1 Binding: threshold 200000 inclusive, high side 1.0, low side 0.0

Could you tell me if the measured PBMCs, anti-mFc 647 CD4+ gate - RL1 Binding of 75110_04P06A (antibody, IgG1, V domains shown, Tested as non-clonal AlivaMab Mouse Kappa hybridoma supernatant: human variable domains and human kappa, mouse Fc) VH: EVQLVESGGGLVQPGGSLRLSCAASGFTFSNYDMHWVRQATGKGLEWVSTIGTAGDTYYPGSVKGRFTISRENAKNSLYLQMNSLRAGDTAVYYCARGGDYYYGMDVWGQGTTVTVSS VL: EIVLTQSPDTLSLSPGERATLSCRASQSLSSVYLAWYQQKPGQAPRLLIYGASSRATGIPDRFSGSGSGTDFTLTINRLEPEDFVVYYCQQYGSSPFTFGPGTKVDIK reaches 200000 or more?
1.0

***
Reported PBMCs, anti-mFc 647 CD4+ gate - RL1 Binding at or above 200000? 75110_14P05A (antibody, V domains shown, Tested as non-clonal AlivaMab Mouse Kappa hybridoma supernatant: human variable domains and human kappa, mouse Fc) VH: EVQLVESGGGLVQPGGSLRLSCAASGFTFSSYDVHWVRQATGKGLEWVSTIGTAGDTYYPGSVKGRFTISRENAKNSLYLQMNSLRAGDTAVYYCARGGFYYYGMDVWGQGTTVTVSS VL: EIVLTQSPGTLSLSPGERATLSCRASQSVSSSYLAWYQQKPGQTPRLLIYGASSRATGIPDRFSGSGSGTDFTLTISRLEPEDFAVFYCQQSGSSPFTFGPGTKVDVK
0.0

Answer whether PBMCs, anti-mFc 647 CD4+ gate - RL1 Binding of 75110_04G16A (antibody, V domains shown, Tested as non-clonal AlivaMab Mouse Kappa hybridoma supernatant: human variable domains and human kappa, mouse Fc) VH: QVQLQESGPGLVKPSQTLSLTCTVSGDSISSGYYYWSWIRQHPGKGLEWIGYISYSGSTYYNPSLKSRLTISVNTSKNQFSLKLSSLTAADTAVYYCARDRPSNFDAFDIWGQGTMVTVSS VL: EIVLTQSPGTLSLSPGERATLSCRASQSVGSTYLAWYQQKPGQAPRLLIYGAFSRATGIPDRFSGSGSGTDFTLTISRLEPEDFAVYYCQQYGSSPLTFGPGTKVDIK is greater than or equal to 200000.
1.0

Evaluate 75110_02I16A (antibody, IgG1, V domains shown, Tested as non-clonal AlivaMab Mouse Kappa hybridoma supernatant: human variable domains and human kappa, mouse Fc; also called 75110_02116A) VH: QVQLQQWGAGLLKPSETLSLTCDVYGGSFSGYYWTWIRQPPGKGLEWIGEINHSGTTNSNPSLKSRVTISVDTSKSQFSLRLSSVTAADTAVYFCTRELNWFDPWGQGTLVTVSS VL: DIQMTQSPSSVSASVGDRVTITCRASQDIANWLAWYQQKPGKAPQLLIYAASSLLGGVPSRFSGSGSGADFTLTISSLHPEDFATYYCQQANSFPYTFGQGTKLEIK : PBMCs, anti-mFc 647 CD4+ gate - RL1 Binding at minimum 200000?
1.0

Say whether 75110_06D16A (antibody, V domains shown, Tested as non-clonal AlivaMab Mouse Kappa hybridoma supernatant: human variable domains and human kappa, mouse Fc (detected with anti-mouse Fc)) VH: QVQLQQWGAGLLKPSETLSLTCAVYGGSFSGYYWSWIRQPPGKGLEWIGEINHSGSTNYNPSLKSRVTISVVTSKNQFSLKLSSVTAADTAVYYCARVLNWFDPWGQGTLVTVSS VL: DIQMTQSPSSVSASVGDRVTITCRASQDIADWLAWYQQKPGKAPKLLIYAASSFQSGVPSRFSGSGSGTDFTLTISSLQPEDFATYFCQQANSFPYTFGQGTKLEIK shows PBMCs, anti-mFc 647 CD4+ gate - RL1 Binding of 200000 or more.
1.0
